Test system: Rtkn-GFP reporter in mouse embryonic stem (mES) cells
Experiment Notes: ToxTracker genotoxicity assay, Rtkn-GFP reporter induction;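 also: GFP reporter signal quantified solely in intact single cells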
Experimental Parameters: with S9 rat liver extract; concentration inducing 25% cytotoxicity; 3 h exposure, 24 h recovery
Quantity: Rtkn induction level (fold)

>  <Compound>
O=C(NCCCCCCn1c(=O)n(CCCCCCNC(=O)OCCN2CC2)c(=O)n(CCCCCCNC(=O)OCCN2CC2)c1=O)OCCN1CC1

>  <System>
Rtkn-GFP reporter in mouse embryonic stem (mES) cells

>  <Quantity>
Rtkn induction level

>  <Reported Value>
3.4

$$$$
>  <Compound>
CC(CN1CC1)OC(=O)NCCCCCCn1c(=O)n(CCCCCCNC(=O)OC(C)CN2CC2)c(=O)n(CCCCCCNC(=O)OC(C)CN2CC2)c1=O (stereo not drawn)

>  <System>
Rtkn-GFP reporter in mouse embryonic stem (mES) cells

>  <Quantity>
Rtkn induction level

>  <Reported Value>
2.1

$$$$
>  <Compound>
CCCCOCC(CN1CC1)OC(=O)NCCCCCC/N=c1\oc(=O)n(CCCCCCNC(=O)OC(COCCCC)CN2CC2)c(=O)n1CCCCCCNC(=O)OC(COCCCC)CN1CC1 (stereo not drawn)

>  <System>
Rtkn-GFP reporter in mouse embryonic stem (mES) cells

>  <Quantity>
Rtkn induction level

>  <Reported Value>
0.9

$$$$
